# System: Gastric Acid Secretion Induced by Histamine
# assay.notes: Inhibition effect on gastric acid secretion induced by histamine in pylorus ligated rat (subcutaneous)
# Format: in vivo, male Wistar rat
# assay.conditions: Rattus norvegicus; 0.2 mg/kg SC; histamine 3 mg/kg SC; average of five runs; read-out: Secretion of Gastric Acid in Rat, Inhibition Rate (%)
# maps each entry to its inhibition in vivo at 0.2 mg/kg
reported.endpoint: inhibition in vivo at 0.2 mg/kg (%)

compound: Nc1n[s+]([O-])nc1NC/C=C\COc1cc(CN2CCCCC2)ccn1 (centres unmarked) [Ex. 7]
study.system: Gastric Acid Secretion Induced by Histamine
test.result: 90
//
compound: Nc1nnc(NC/C=C\COc2cccc(CN3CCCCC3)n2)s1 [Ex. 39]
study.system: Gastric Acid Secretion Induced by Histamine
test.result: 36
//
compound: Nc1cc(NC/C=C\COc2cccc(CN3CCCCC3)n2)[nH]c(=O)n1 [Ex. 47]
study.system: Gastric Acid Secretion Induced by Histamine
test.result: 40
//
compound: NC1=NS(=O)(=O)N=C1NC/C=C\COc1cccc(CN2CCCCC2)n1 [Ex. 36]
study.system: Gastric Acid Secretion Induced by Histamine
test.result: 72
//
compound: Nc1c(NC/C=C\COc2cc(CN3CCCCC3)ccn2)c(=O)c1=O [Ex. 1]
study.system: Gastric Acid Secretion Induced by Histamine
test.result: 54

---

# maps each entry to its Kb
# study.system: Histamine H2 -Receptor (Cavia porcellus, UniProt P47747)
# Construct: from tissue; host or cells: isolated right atrium of male Hartley guinea pig
# Sequence (P47747 whole entry): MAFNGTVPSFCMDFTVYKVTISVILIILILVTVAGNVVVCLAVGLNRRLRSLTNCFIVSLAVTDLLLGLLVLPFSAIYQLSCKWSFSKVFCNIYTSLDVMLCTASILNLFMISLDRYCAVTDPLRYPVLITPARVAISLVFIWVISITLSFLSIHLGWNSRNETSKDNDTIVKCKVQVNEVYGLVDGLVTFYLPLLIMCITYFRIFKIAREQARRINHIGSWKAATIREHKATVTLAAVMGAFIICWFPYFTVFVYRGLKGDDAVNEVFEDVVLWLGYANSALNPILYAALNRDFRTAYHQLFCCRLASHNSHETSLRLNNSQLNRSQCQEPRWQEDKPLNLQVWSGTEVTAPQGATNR
# assay.notes: biochemical
# Design: species or system male Hartley guinea pig
# assay.conditions: negative logarithm of molar concentration; isolated guinea pig atrium; read-out: Antagonistic Action against Histamine H2 -Receptor (pA2) Determined by Using Atrium isolated from Guinea Pig (converted)

smiles.structure: CN(C)Cc1ccnc(OC/C=C\CNc2c(N)c(=O)c2=O)c1
study.system: Histamine H2 -Receptor (Cavia porcellus, UniProt P47747)
Kb, nM: 468

smiles.structure: Nc1n[nH]c(=O)nc1NC/C=C\COc1cc(CN2CCCCC2)ccn1
study.system: Histamine H2 -Receptor (Cavia porcellus, UniProt P47747)
Kb, nM: 275

smiles.structure: CNc1c(NC/C=C\COc2cc(CN3CCCCC3)ccn2)c(=O)c1=O
study.system: Histamine H2 -Receptor (Cavia porcellus, UniProt P47747)
Kb, nM: 174

smiles.structure: O=c1nc(NC/C=C\COc2cc(CN3CCCCC3)ccn2)[nH]cc1Cc1cccnc1
study.system: Histamine H2 -Receptor (Cavia porcellus, UniProt P47747)
Kb, nM: 363

---

# assay.notes: Acute toxicity test on mice dosed orally
# Assay type: in vivo
# assay.conditions: mouse, in vivo, po; P.O.; 14 days observation; Litchfield and Wilcoxon Method; read-out: Median lethal dose (LD50)
# maps each entry to its LD50 at 336 h
reported.endpoint: LD50 at 336 h

molecule: CNc1n[s+]([O-])nc1NC/C=C\COc1cc(CN(C)C)ccn1 (centres unmarked)
test.result: > 1500 mg/kg
--
molecule: Nc1n[nH]c(=O)nc1NC/C=C\COc1cc(CN2CCCCC2)ccn1
test.result: > 1500 mg/kg
--
molecule: Cn1nc(N)nc1NC/C=C\COc1cc(CN2CCCCC2)ccn1
test.result: > 1500 mg/kg
--
molecule: Nc1n[s+]([O-])nc1NC/C=C/COc1cc(CN2CCCCC2)ccn1 (centres unmarked)
test.result: > 1500 mg/kg
--
molecule: CN(C)Cc1ccnc(OC/C=C\CNc2n[s+]([O-])nc2N)c1 (centres unmarked)
test.result: > 1500 mg/kg
--
molecule: O=c1nc(NC/C=C\COc2cc(CN3CCCCC3)ccn2)[nH]cc1Cc1cccnc1
test.result: 1600 mg/kg
--
molecule: Cn1nc(N)c(NC/C=C\COc2cc(CN3CCCCC3)ccn2)nc1=O
test.result: 1250 mg/kg
--
molecule: CNc1c(NC/C=C\COc2cc(CN3CCCCC3)ccn2)c(=O)c1=O
test.result: > 1500 mg/kg

---

# study.system: Histamine H2 -Receptor (Cavia porcellus)
# Construct: from tissue; host or cells: isolated right atrium of male Hartley guinea pig
# assay.notes: biochemical
# Parameters: species or system male Hartley guinea pig
# assay.conditions: negative logarithm of molar concentration; isolated guinea pig atrium; read-out: Antagonistic Action against Histamine H2 -Receptor (pA2) Determined by Using Atrium isolated from Guinea Pig (converted)
So basically: Kb at 300 nM or higher? That is criterion met. Lower than 300 nM? That is criterion not met.

compound: Nc1c(NC/C=C\COc2cccc(CN3CCCCC3)n2)c(=O)c1=O
assigned.category: criterion met

compound: Nc1c(NC/C=C\COc2cc(CN3CCCCC3)ccn2)c(=O)c1=O
assigned.category: criterion met

compound: CN(C)Cc1cccc(Cc2c[nH]c(NC/C=C\COc3cc(CN4CCCCC4)ccn3)nc2=O)c1
assigned.category: criterion met

compound: Nc1nnc(NC/C=C\COc2cc(CN3CCCCC3)ccn2)s1
assigned.category: criterion not met

compound: CN(C)Cc1c[nH]c(NC/C=C\COc2cc(CN3CCCCC3)ccn2)nc1=O
assigned.category: criterion met

compound: Nc1nnc(NC/C=C\COc2cccc(CN3CCCCC3)n2)s1
assigned.category: criterion met

compound: CNc1n[s+]([O-])nc1NC/C=C/COc1cc(CN2CCCCC2)ccn1 (centres unmarked)
assigned.category: criterion not met

compound: Cn1nc(N)nc1NC/C=C\COc1cc(CN2CCCCC2)ccn1
assigned.category: criterion met

compound: O=c1nc(NC/C=C\COc2cc(CN3CCCCC3)ccn2)[nH]nc1Cc1cccnc1
assigned.category: criterion not met

compound: CNc1n[s+]([O-])nc1NC/C=C\COc1cc(CN(C)C)ccn1 (centres unmarked)
assigned.category: criterion not met

compound: Cn1nc(N)c(NC/C=C\COc2cc(CN3CCCCC3)ccn2)nc1=O
assigned.category: criterion met

compound: NC1=NS(=O)(=O)N=C1NC/C=C\COc1cc(CN2CCCCC2)ccn1
assigned.category: criterion met

compound: Nc1n[s+]([O-])nc1NC/C=C/COc1cc(CN2CCCCC2)ccn1 (centres unmarked)
assigned.category: criterion met

compound: NC1=NS(=O)(=O)N=C1NC/C=C\COc1cccc(CN2CCCCC2)n1
assigned.category: criterion not met

compound: CNc1n[s+]([O-])nc1NC/C=C\COc1cccc(CN2CCCCC2)n1 (centres unmarked)
assigned.category: criterion met

compound: Nc1n[nH]c(=O)nc1NC/C=C\COc1cccc(CN2CCCCC2)n1
assigned.category: criterion met

compound: CNc1c(NC/C=C\COc2cccc(CN3CCCCC3)n2)c(=O)c1=O
assigned.category: criterion met

compound: Cn1nc(N)nc1NC/C=C\COc1cccc(CN2CCCCC2)n1
assigned.category: criterion met

compound: Nc1nsnc1NC/C=C\COc1cc(CN2CCCCC2)ccn1
assigned.category: criterion not met

compound: CN(C)Cc1c[nH]c(NC/C=C\COc2cccc(CN3CCCCC3)n2)nc1=O
assigned.category: criterion met

---

# maps each entry to its inhibition in vivo at 0.2 mg/kg
# Test system: Gastric Acid Secretion Induced by Histamine
# assay.notes: Inhibition effect on gastric acid secretion induced by histamine in pylorus ligated rat (subcutaneous)
# Assay type: in vivo, male Wistar rat
# assay.conditions: Rattus norvegicus; 0.2 mg/kg SC; histamine 3 mg/kg SC; average of five runs; read-out: Secretion of Gastric Acid in Rat, Inhibition Rate (%)
# Protocol: A male Wistar rat having a body weight of about 160 g and which had not fed for 24 hours was anesthetized by an intraperitoneal dose of 1.2 g/kg of urethane. […] The wall of the stomach was rinsed with 5 ml of saline at 30 minutes intervals, and the quantity of gastric acid contained in each rinsing solution was measured by titration. […] The quantity of gastric acid secreted after the operation was measured continuously for 3 hours. […]

compound: Nc1cc(NC/C=C\COc2cc(CN3CCCCC3)ccn2)[nH]c(=O)n1 [Ex. 26]
inhibition in vivo at 0.2 mg/kg / %: 83
--
compound: CNc1n[s+]([O-])nc1NC/C=C\COc1cc(CN2CCCCC2)ccn1 (centres unmarked) [Ex. 8]
inhibition in vivo at 0.2 mg/kg / %: 85
--
compound: CN(C)Cc1ccnc(OC/C=C\CNc2n[s+]([O-])nc2N)c1 (centres unmarked) [Ex. 11]
inhibition in vivo at 0.2 mg/kg / %: 101
--
compound: CNc1n[s+]([O-])nc1NC/C=C\COc1cc(CN(C)C)ccn1 (centres unmarked) [Ex. 12]
inhibition in vivo at 0.2 mg/kg / %: 91
--
compound: CN(C)Cc1cccc(Cc2c[nH]c(NC/C=C\COc3cc(CN4CCCCC4)ccn3)nc2=O)c1 [Ex. 23]
inhibition in vivo at 0.2 mg/kg / %: 36

---

# maps each entry to its Kb
# study.system: Histamine H2 -Receptor (Cavia porcellus, UniProt P47747)
# Construct: from tissue; host or cells: isolated right atrium of male Hartley guinea pig
# assay.notes: biochemical
# Set-up: species or system male Hartley guinea pig
# assay.conditions: negative logarithm of molar concentration; isolated guinea pig atrium; read-out: Antagonistic Action against Histamine H2 -Receptor (pA2) Determined by Using Atrium isolated from Guinea Pig (converted)

compound: Nc1n[s+]([O-])nc1NC/C=C\COc1cc(CN2CCCCC2)ccn1 (centres unmarked) [Ex. 7]
Kb / µM: 0.661
--
compound: CNc1n[s+]([O-])nc1NC/C=C\COc1cc(CN2CCCCC2)ccn1 (centres unmarked) [Ex. 8]
Kb / µM: 0.49
--
compound: Nc1cc(NC/C=C\COc2cc(CN3CCCCC3)ccn2)[nH]c(=O)n1 [Ex. 26]
Kb / µM: 0.263
--
compound: CN(C)Cc1ccnc(OC/C=C\CNc2n[s+]([O-])nc2N)c1 (centres unmarked) [Ex. 11]
Kb / µM: 0.49
--
compound: Nc1n[s+]([O-])nc1NC/C=C\COc1cccc(CN2CCCCC2)n1 (centres unmarked) [Ex. 34]
Kb / µM: 0.933
